- Tested on: αIIbβ3, αvβ3, α5β1
- test_protocol: Panel of RGD-selective integrin assays (platelet aggregation and cell adhesion)
- Type: cell-based
- conditions_used: range over the panel (Table 1); read-out: concentrations of potent inhibition of αIIbβ3-dependent platelet aggregation and αIIbβ3-, αvβ3-, α5β1-dependent cell adhesion

[
  {
    "substance": "Echistatin (ECESGPCCRNCKFLKEGTICKRARGDDMDDYCNGKTCDCPRNPHKGPAT) [reference compound]",
    "IC50": "20 to 130 nM"
  }
]

* * *

- assayed_target: α4β1 (UniProt G3HZ55+P13612)
- test_protocol: α4B2 (CHOα4+/α5−) cell adhesion to immobilized VCAM-1
- Assay type: cell-based, human
- Parameters: expressed in transfected cells; host or cells: B2 CHO cells (α5-deficient), gift of Dr. Y. Takada
- conditions_used: α4B2 (CHOα4+/α5−) cells, ligand VCAM-1
experimental_readout: IC50

[
  {
    "substance": "Echistatin (ECESGPCCRNCKFLKEGTICKRARGDDMDDYCNGKTCDCPRNPHKGPAT) [reference compound]",
    "experimental_readout": "IC50",
    "readout_value": "> 10 µM"
  }
]

* * *

- assayed_target: α4β1 (UniProt G3HZ55+P13612)
- test_protocol: A2 (CHOα4+) cell adhesion to immobilized VCAM-1
- Format: cell-based, human
- Parameters: expressed in transfected cells; host or cells: CHO (A2 cells, α4+ α5+), gift of Dr. Y. Takada
- conditions_used: A2 (CHOα4+) cells, ligand VCAM-1
pIC50: −log10 of the molar value.
experimental_readout: pIC50

[
  {
    "substance": "Echistatin (ECESGPCCRNCKFLKEGTICKRARGDDMDDYCNGKTCDCPRNPHKGPAT) [reference compound]",
    "experimental_readout": "pIC50",
    "readout_value": "< 5.00"
  }
]

* * *

- assayed_target: αIIbβ3 (Homo sapiens, UniProt P05106+P08514)
- test_protocol: A5 (CHOαIIbβ3+) cell adhesion to immobilized fibrinogen
- Assay type: cell-based
- conditions_used: A5 (CHOαIIbβ3+) cells, ligand Fg
experimental_readout: IC50 (nM)

[
  {
    "substance": "Echistatin (ECESGPCCRNCKFLKEGTICKRARGDDMDDYCNGKTCDCPRNPHKGPAT) [reference compound]",
    "assayed_target": "αIIbβ3 (Homo sapiens, UniProt P05106+P08514)",
    "units_label": "nM",
    "readout_value": 50
  }
]

* * *

- assayed_target: αIIbβ3 (Homo sapiens, UniProt P05106+P08514)
- test_protocol: ADP-induced platelet aggregation in platelet rich plasma (ADP PA)
- Type: cell-based
- Parameters: endogenous in cells; host or cells: platelets in platelet rich plasma
- conditions_used: Platelets, αIIbβ3, ligand Fg, 30 μM ADP
pIC50: −log10 of the molar value.
experimental_readout: pIC50

[
  {
    "substance": "Echistatin (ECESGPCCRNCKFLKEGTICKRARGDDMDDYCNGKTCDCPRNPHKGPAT) [reference compound]",
    "experimental_readout": "pIC50",
    "readout_value": 6.89
  }
]

* * *

- assayed_target: α4β7 (Homo sapiens, UniProt P13612+P26010)
- Construct: endogenous in cells; host or cells: JY cells (A11); RPMI 8866 cells (A12)
- test_protocol: RPMI 8866 cell adhesion to MadCAM-1
- Assay type: cell-based
- conditions_used: RPMI 8866 cells, α4β7, ligand MadCAM-1
pIC50: −log10 of the molar value.
experimental_readout: pIC50

[
  {
    "substance": "Echistatin (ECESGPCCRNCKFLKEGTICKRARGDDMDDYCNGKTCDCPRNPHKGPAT) [reference compound]",
    "readout_value": "< 5.00"
  }
]
